# Tested on: osteoclast precursors
# assay-comment: Osteoclast tartrate-resistant acid phosphatase assay
# Type: cell-based
# details: Osteoclast, 7-14 days, RANKL and M-CSF
Quick reference for IC50 among some compounds

[
  {
    "compound": "CCc1nc(NC(=O)N2CCN(C3CCOCC3)C2=O)ccc1Oc1ccnc(-c2cnn(C)c2)c1",
    "system-name": "osteoclast precursors",
    "IC50": "10 to 100 nM"
  },
  {
    "compound": "CCN1CCN(C(=O)Nc2ccc(Oc3ccnc(-c4cnc(C)o4)c3)cn2)C1=O",
    "system-name": "osteoclast precursors",
    "IC50": "10 to 100 nM"
  },
  {
    "compound": "CN(C)C(=O)Nc1cc(Oc2ccc(NC(=O)N3CCN(C4CCOCC4)C3=O)nc2)ccn1",
    "system-name": "osteoclast precursors",
    "IC50": "< 10 nM"
  },
  {
    "compound": "CC(C)N1CCN(C(=O)Nc2ccc(Oc3ccnc(-c4cnn(C)c4)c3)cn2)C1=O",
    "system-name": "osteoclast precursors",
    "IC50": "< 10 nM"
  },
  {
    "compound": "COC(C)(C)CCN1CCN(C(=O)Nc2ccc(Oc3ccnc(-c4cnn(C)c4)c3)cn2)C1=O",
    "system-name": "osteoclast precursors",
    "IC50": "10 to 100 nM"
  },
  {
    "compound": "Cn1cc(-c2cc(Oc3ccc(NC(=O)N4CCN(CC#N)C4=O)nc3)ccn2)cn1",
    "system-name": "osteoclast precursors",
    "IC50": "100 to 1000 nM"
  },
  {
    "compound": "Cc1ccc(-c2cc(Oc3ccc(NC(=O)N4CCN(C5CCOCC5)C4=O)nc3)ccn2)cn1",
    "system-name": "osteoclast precursors",
    "IC50": "10 to 100 nM"
  },
  {
    "compound": "Cc1ncc(-c2cc(Oc3ccc(NC(=O)N4CCN(CC(F)(F)F)C4=O)nc3C)ccn2)s1",
    "system-name": "osteoclast precursors",
    "IC50": "10 to 100 nM"
  }
]

IC50 reading for "Cc1cn(-c2cc(Oc3ccc(NC(=O)N4CCN(CC(F)(F)F)C4=O)nc3)ccn2)cn1" : 100 to 1000 nM

// field: IC50; key: "Cn1cc(-c2cc(Oc3ccc(NC(=O)N4CCN(CCOC(F)(F)F)C4=O)nc3)ccn2)cn1" ; value = 10 to 100 nM

Entry "COC[C@@H](C)N1CCN(C(=O)Nc2ccc(Oc3ccnc(-c4cnn(C)c4)c3)cn2)C1=O" — recorded IC50 = < 10 nM

# IC50 of "CC(C)N1CCN(C(=O)Nc2ncc(Oc3ccnc(-c4cnn(C)c4)c3)cn2)C1=O" = < 10 nM

###

# system-name: unphosphorylated c-FMS kinase (uFMS, Seq. ID no. 1) (Homo sapiens (Human), UniProt P07333)
# Sequence (P07333 538-972): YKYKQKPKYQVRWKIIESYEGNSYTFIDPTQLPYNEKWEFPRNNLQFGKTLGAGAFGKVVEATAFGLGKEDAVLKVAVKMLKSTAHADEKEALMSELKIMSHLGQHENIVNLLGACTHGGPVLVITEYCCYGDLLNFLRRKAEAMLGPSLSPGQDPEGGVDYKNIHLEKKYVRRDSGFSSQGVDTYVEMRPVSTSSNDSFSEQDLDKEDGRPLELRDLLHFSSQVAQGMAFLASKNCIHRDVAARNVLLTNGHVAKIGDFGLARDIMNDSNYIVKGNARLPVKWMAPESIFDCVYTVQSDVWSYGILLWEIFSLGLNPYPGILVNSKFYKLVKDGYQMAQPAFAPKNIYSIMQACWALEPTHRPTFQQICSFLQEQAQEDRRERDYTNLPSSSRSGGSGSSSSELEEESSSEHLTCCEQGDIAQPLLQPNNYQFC
# assay-comment: uFMS kinase assay (ADP production coupled to pyruvate kinase/lactate dehydrogenase)
# Assay type: biochemical
# details: enzymatic assay, ATP 500 μM; read-out: uFMS
# Experimental: uFMS kinase (Seq. ID No. 1) Assay In this assay, the oxidation of NADH (thus the decrease at A340 nm) was continuously monitored spectrophometrically. […] The absorption at 340 nm was monitored continuously for 4 hours at 30° C. on Synergy 2 plate reader. The reaction rate was calculated using the 3 to 4 h time frame. […]
pIC50: −log10 of the molar value.
metric: pIC50

Below, each entry is followed by its recorded pIC50 result.
[
  {
    "smiles-representation": "Cn1cc(-c2cc(Oc3ccc(NC(=O)N4CCN(C(C)(C)C)C4=O)nc3)ccn2)cn1",
    "system-name": "unphosphorylated c-FMS kinase (uFMS, Seq. ID no. 1) (Homo sapiens (Human), UniProt P07333)",
    "pIC50": "> 8.00"
  },
  {
    "smiles-representation": "Cn1cc(-c2cc(Oc3ccc(NC(=O)N4CC(C)(C)N(C5CCCCC5)C4=O)nc3)ccn2)cn1",
    "system-name": "unphosphorylated c-FMS kinase (uFMS, Seq. ID no. 1) (Homo sapiens (Human), UniProt P07333)",
    "pIC50": "7.00 to 8.00"
  },
  {
    "smiles-representation": "Cn1cc(-c2cc(Oc3ccc(NC(=O)N4CCN(C5COC5)C4=O)nc3)ccn2)cn1",
    "system-name": "unphosphorylated c-FMS kinase (uFMS, Seq. ID no. 1) (Homo sapiens (Human), UniProt P07333)",
    "pIC50": "7.00 to 8.00"
  },
  {
    "smiles-representation": "Cn1cc(-c2cc(Oc3ccc(NC(=O)N4CCN(C5CCC(F)(F)CC5)C4=O)nc3)ccn2)cn1",
    "system-name": "unphosphorylated c-FMS kinase (uFMS, Seq. ID no. 1) (Homo sapiens (Human), UniProt P07333)",
    "pIC50": "> 8.00"
  },
  {
    "smiles-representation": "CCN1CCN(C(=O)Nc2ccc(Oc3ccnc(-c4cnc(C)s4)c3)cn2)C1=O",
    "system-name": "unphosphorylated c-FMS kinase (uFMS, Seq. ID no. 1) (Homo sapiens (Human), UniProt P07333)",
    "pIC50": "7.00 to 8.00"
  },
  {
    "smiles-representation": "Cc1nc(NC(=O)N2CCN(C3COC3)C2=O)ccc1Oc1ccnc(-c2cnn(C)c2)c1",
    "system-name": "unphosphorylated c-FMS kinase (uFMS, Seq. ID no. 1) (Homo sapiens (Human), UniProt P07333)",
    "pIC50": "7.00 to 8.00"
  }
]

// field: pIC50; key: "CCc1nc(NC(=O)N2CCN(C3CCCC3)C2=O)ccc1Oc1ccnc(-c2cnn(C)c2)c1" ; value = > 8.00

Short answer for "CNC(=O)c1cc(Oc2ccc(NC(=O)N3CCN(C(C)(C)C)C3=O)nc2)ccn1" : pIC50 was > 8.00

###

We begin with a simple list: items and their reported IC50.
# system-name: unphosphorylated c-FMS kinase (uFMS, Seq. ID no. 1) (Homo sapiens (Human))
# assay-comment: uFMS kinase assay (ADP production coupled to pyruvate kinase/lactate dehydrogenase)
# Type: biochemical
# details: Table 4; read-out: c-FMS IC50

[
  {
    "smiles-representation": "Cn1cc(-c2cc(Oc3cc(F)c(NC(=O)N4CCN(C5CCOCC5)C4=O)cc3F)ccn2)cn1",
    "IC50": "7 nM"
  },
  {
    "smiles-representation": "Cc1nc(NC(=O)N2CCN(C3CCCC3)C2=O)ccc1Oc1ccnc(-c2cnn(C)c2)c1",
    "IC50": "2 nM"
  },
  {
    "smiles-representation": "CN(C)C(=O)Nc1cc(Oc2cc(F)c(NC(=O)N3CCN(C4CCOCC4)C3=O)cc2Cl)ccn1",
    "IC50": "8 nM"
  },
  {
    "smiles-representation": "CNC(=O)c1cc(Oc2ccc(NC(=O)N3CCN(C(C)(C)C)C3=O)nc2)ccn1",
    "IC50": "5 nM"
  },
  {
    "smiles-representation": "Cn1cc(-c2cc(Oc3ccc(NC(=O)N4CCN(C5CCCCC5)C4=O)nc3)ccn2)cn1",
    "IC50": "3 nM"
  },
  {
    "smiles-representation": "CCN1CCN(C(=O)Nc2ccc(Oc3ccnc(-c4cnn(C)c4)c3)c(C)n2)C1=O",
    "IC50": "8 nM"
  },
  {
    "smiles-representation": "Cn1cc(-c2cc(Oc3ccc(NC(=O)N4CCN(C5CCOCC5)C4=O)nc3)ccn2)cn1",
    "IC50": "6 nM"
  }
]

Query molecule follows.
// IC50 value for "COCCN1CCN(C(=O)Nc2ccc(Oc3ccnc(-c4cnn(C)c4)c3)c(C)n2)C1=O" : 20 nM

###

pIC50 tested on UniProt:P35968: recorded values
Sequence (P35968 20-1356): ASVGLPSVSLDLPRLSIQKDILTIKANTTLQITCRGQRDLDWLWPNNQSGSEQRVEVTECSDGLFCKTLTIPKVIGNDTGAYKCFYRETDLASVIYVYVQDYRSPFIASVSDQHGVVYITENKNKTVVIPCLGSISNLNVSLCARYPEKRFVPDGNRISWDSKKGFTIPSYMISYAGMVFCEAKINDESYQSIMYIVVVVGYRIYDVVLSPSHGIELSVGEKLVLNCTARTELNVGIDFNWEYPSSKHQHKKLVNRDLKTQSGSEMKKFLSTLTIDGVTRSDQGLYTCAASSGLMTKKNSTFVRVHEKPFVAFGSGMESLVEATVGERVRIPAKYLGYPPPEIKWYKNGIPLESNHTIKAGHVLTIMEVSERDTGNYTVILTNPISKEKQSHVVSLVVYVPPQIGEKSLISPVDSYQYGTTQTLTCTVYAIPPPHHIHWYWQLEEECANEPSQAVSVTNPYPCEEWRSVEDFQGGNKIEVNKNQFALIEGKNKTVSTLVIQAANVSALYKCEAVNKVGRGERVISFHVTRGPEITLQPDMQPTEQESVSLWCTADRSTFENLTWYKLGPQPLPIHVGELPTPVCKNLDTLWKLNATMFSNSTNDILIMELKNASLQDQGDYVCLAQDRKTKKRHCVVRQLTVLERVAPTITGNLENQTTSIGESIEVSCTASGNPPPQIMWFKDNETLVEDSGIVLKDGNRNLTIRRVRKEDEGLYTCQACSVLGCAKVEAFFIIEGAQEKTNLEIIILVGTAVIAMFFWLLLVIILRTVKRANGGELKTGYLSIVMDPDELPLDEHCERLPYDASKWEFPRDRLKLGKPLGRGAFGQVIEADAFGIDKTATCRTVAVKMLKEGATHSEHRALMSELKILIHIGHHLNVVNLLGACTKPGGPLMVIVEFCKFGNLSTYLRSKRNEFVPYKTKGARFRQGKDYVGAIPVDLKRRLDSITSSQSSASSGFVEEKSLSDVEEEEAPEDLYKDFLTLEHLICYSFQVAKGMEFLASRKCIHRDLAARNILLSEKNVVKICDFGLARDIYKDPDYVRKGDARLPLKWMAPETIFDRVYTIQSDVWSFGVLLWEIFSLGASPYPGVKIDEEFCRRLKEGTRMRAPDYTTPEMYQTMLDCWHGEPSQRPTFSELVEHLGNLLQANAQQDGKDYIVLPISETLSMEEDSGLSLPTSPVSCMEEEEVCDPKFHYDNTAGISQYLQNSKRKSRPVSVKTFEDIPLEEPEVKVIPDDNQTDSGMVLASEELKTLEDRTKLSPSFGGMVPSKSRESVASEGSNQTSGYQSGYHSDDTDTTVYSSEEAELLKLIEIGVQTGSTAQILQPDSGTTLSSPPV
pIC50: −log10 of the molar value.

Consider the reported pIC50 for these compounds:
[
  {
    "smiles-representation": "COCCN1CCN(C(=O)Nc2ccc(Oc3ccnc(-c4cnn(C)c4)c3)c(C)n2)C1=O",
    "pIC50": "< 5.48"
  },
  {
    "smiles-representation": "CNC(=O)c1cc(Oc2ccc(NC(=O)N3CCN(C(C)(C)C)C3=O)nc2)ccn1",
    "pIC50": 5.48
  },
  {
    "smiles-representation": "Cn1cc(-c2cc(Oc3ccc(NC(=O)N4CCN(C5CCOCC5)C4=O)nc3)ccn2)cn1",
    "pIC50": "< 5.48"
  }
]

// compound "Cn1cc(-c2cc(Oc3cc(F)c(NC(=O)N4CCN(C5CCOCC5)C4=O)cc3F)ccn2)cn1" , assay UniProt:P35968, pIC50 value: < 5.48

pIC50 for UniProt:P35968 with input "CN(C)C(=O)Nc1cc(Oc2cc(F)c(NC(=O)N3CCN(C4CCOCC4)C3=O)cc2Cl)ccn1" equals < 5.48

Data provenance is patent US9133183B2.
